Hey, just so you know, these numbers are from patent US11274100B2.

System: TE-8 cells
Label label 1 when GI50 is strictly below 300 nM; at or above that, label label 0.

CC(=O)Nc1ccc(C2(C(=O)N3C[C@H](F)C[C@@H]3C(=O)Nc3ccc4[nH]ncc4n3)CCC(F)(F)CC2)cc1 :: label 0
COc1ccc(C2(C(=O)N3C[C@@H](O)C[C@@H]3C(=O)Nc3ccc4[nH]ncc4n3)CCCCC2)cc1 :: label 0
O=C(Nc1ccc2[nH]ncc2n1)[C@H]1C[C@@H](F)CN1C(=O)C1(c2ccc(OC(F)F)cc2)CC(F)(F)C1 :: label 1
CC(C)(O)c1ccc(C2(C(=O)N3C[C@H](F)C[C@@H]3C(=O)Nc3ccc4[nH]ncc4n3)CCCCC2)cc1 [Example 81a] :: label 1
COc1ccc(C2(C(=O)N3CC(=O)C[C@@H]3C(=O)Nc3ccc4[nH]ccc4n3)CCC(F)(F)CC2)cc1 :: label 0

Task: Hello, I'm reviewing records and need to know if GI50 of [2H]C([2H])([2H])N(C(=O)C1(c2ccc(OC)cc2)CCC(F)(F)CC1)[C@H](CO)C(=O)Nc1ccc2[nH]ccc2n1 is below 300 nM. Could you check?
Output: label 1

Task: Hello, I'm reviewing records and need to know if GI50 of O=C(Nc1ccc2[nH]ncc2n1)[C@H]1C[C@@H](F)CN1C(=O)C1(c2ccc(OC(F)F)cc2)CCC(F)(F)CC1 is below 300 nM. Could you check?
Output: label 1

Task: Hello, I'm reviewing records and need to know if GI50 of [2H]C([2H])([2H])Oc1ccc(C2(C(=O)N3C[C@H](F)C[C@@H]3C(=O)Nc3ccc4[nH]ncc4n3)CCC(F)(F)CC2)cc1F is below 300 nM. Could you check?
Output: label 0

Task: Hello, I'm reviewing records and need to know if GI50 of CC(C)(O)c1ccc(C2(C(=O)N3C[C@H](F)C[C@@H]3C(=O)Nc3ccc4[nH]ncc4n3)CCC(F)(F)CC2)cc1 is below 300 nM. Could you check?
Output: label 0

Task: Hello, I'm reviewing records and need to know if GI50 of COc1ccc(C2(C(=O)N(C)[C@@H](C(=O)Nc3ccc4[nH]ncc4n3)[C@H](C)O)CCC(F)(F)CC2)cc1 is below 300 nM. Could you check?
Output: label 1

###

assayTarget: EP300 (Homo sapiens)
Sequence (Q09472 whole entry): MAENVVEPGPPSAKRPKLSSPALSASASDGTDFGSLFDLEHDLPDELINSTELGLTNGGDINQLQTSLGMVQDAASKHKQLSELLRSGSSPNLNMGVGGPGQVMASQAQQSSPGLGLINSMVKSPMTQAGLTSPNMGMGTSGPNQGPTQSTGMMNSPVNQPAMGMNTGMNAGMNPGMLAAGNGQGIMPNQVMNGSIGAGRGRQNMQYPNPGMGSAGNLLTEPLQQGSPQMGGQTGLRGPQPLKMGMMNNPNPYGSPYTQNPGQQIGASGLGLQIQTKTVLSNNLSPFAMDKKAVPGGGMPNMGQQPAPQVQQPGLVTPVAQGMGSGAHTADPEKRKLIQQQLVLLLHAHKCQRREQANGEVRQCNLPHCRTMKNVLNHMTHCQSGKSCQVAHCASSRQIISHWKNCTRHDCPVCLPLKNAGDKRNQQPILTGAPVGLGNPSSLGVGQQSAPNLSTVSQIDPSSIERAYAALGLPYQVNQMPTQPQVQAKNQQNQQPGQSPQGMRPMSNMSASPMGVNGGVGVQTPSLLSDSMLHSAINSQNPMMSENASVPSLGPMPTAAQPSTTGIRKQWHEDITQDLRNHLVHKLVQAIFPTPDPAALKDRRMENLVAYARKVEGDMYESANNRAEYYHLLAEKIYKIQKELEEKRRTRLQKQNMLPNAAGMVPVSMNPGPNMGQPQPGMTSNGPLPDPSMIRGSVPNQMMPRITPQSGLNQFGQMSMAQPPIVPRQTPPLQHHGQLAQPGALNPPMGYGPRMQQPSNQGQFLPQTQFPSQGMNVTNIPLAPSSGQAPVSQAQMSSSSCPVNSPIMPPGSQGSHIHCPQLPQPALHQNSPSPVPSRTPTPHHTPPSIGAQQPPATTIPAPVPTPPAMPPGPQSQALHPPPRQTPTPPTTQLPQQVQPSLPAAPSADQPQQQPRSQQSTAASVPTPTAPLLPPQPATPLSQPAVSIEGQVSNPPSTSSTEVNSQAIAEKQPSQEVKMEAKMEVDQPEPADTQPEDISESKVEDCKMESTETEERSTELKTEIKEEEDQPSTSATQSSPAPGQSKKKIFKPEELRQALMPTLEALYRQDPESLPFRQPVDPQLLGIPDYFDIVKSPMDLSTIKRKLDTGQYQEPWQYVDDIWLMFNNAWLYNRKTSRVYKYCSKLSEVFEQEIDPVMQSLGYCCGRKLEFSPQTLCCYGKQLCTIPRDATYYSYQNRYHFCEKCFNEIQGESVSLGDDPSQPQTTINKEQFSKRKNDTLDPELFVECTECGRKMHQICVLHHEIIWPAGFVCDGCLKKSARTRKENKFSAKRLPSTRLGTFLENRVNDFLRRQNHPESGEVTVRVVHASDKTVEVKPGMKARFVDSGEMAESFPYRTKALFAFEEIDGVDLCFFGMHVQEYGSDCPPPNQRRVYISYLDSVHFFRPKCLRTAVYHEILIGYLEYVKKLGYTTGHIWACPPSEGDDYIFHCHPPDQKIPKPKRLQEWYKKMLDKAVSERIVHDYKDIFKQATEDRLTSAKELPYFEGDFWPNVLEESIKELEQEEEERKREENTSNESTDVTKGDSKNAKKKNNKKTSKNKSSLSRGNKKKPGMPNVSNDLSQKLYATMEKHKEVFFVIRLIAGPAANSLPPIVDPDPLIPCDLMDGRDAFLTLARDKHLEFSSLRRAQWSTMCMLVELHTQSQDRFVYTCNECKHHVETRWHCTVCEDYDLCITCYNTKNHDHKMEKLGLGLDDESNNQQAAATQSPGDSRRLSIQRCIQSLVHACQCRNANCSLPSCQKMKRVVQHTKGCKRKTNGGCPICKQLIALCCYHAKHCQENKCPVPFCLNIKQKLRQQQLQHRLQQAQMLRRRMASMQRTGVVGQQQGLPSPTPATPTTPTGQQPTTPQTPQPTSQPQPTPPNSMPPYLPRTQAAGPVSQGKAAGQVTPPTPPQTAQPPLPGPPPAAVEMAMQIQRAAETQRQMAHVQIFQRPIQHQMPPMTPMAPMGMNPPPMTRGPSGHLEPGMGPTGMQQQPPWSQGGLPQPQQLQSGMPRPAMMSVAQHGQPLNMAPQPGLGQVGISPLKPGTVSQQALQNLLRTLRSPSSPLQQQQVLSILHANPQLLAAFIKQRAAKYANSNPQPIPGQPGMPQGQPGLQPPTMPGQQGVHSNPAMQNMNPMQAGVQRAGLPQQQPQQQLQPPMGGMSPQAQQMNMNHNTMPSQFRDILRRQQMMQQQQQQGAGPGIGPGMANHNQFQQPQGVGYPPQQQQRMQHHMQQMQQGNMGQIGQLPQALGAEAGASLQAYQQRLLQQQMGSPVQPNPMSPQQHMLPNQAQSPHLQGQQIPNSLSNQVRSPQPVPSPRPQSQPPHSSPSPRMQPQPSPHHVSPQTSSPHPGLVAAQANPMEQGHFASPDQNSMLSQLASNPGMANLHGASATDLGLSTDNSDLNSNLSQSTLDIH
pIC50: −log10 of the molar value.
Quick rule: pIC50 of at least 7 means YES, below that means NO.

Here are 8 compounds together with their reported answers.
COc1ccc(C2(C(=O)N3C[C@H](F)[C@@H](O)[C@@H]3C(=O)Nc3ccc4[nH]ncc4n3)CCC(F)(F)CC2)cc1 :: YES
CNc1cccc(NC(=O)[C@H]2CCCN2C(=O)C2(c3ccc(OC)cc3)CCCC2)n1 :: NO
COc1ccc(C2(C(=O)N3CC[C@@H](O)[C@@H]3C(=O)Nc3ccc4[nH]ccc4n3)CCC(F)(F)CC2)cc1 :: YES
COc1ncc(C2(C(=O)N3C[C@H](F)C[C@@H]3C(=O)Nc3ccc4[nH]ncc4n3)CCCC2)cn1 :: YES
O=C(Nc1ccc2[nH]ncc2n1)[C@H]1C[C@@H](F)CN1C(=O)C1(c2ccc(OC(F)F)c(F)c2)CCC(F)(F)CC1 :: YES
COc1ccc(C2(C(=O)N3CCC[C@@H]3C(=O)Nc3cccc(N)n3)CCCC2)cc1 :: NO
O=C(Nc1ccc2[nH]ncc2n1)[C@H]1C[C@@H](F)CN1C(=O)C1(c2ccc(OCF)cc2)CCCC1 :: YES
COC(=O)c1ccc(C2(C(=O)N3C[C@H](F)C[C@@H]3C(=O)Nc3ccc4[nH]ncc4n3)CCCCC2)cc1 [Example 81b] :: YES

Task: Does the compound CC(C)(O)c1ccc(C2(C(=O)N3C[C@H](F)C[C@@H]3C(=O)Nc3ccc4[nH]ncc4n3)CCCCC2)cc1 [Example 81a] have recorded pIC50 that is 7 or more?
Output: YES

Task: Does the compound O=C(Nc1ccc2[nH]c(CO)cc2n1)[C@H]1C[C@@H](F)CN1C(=O)C1(c2ccc(OC(F)F)cc2)CCC(F)(F)CC1 have recorded pIC50 that is 7 or more?
Output: YES

Task: Does the compound COc1ccc(C2(C(=O)N3C[C@H](F)C[C@@H]3C(=O)Nc3cccc4[nH]ncc34)CCCCO2)cc1 (single isomer, unassigned) have recorded pIC50 that is 7 or more?
Output: YES

###

assayTarget: EP300 (Homo sapiens)
pIC50: −log10 of the molar value.
Quick rule: pIC50 of at least 7 means T, below that means F.

Here are 2 compounds together with their reported answers.
COc1ccc(C2(C(=O)N3CS(=O)(=O)C[C@@H]3C(=O)Nc3ccc4[nH]c(C)cc4n3)CCC(F)(F)CC2)cc1 [Example 79] :: F
COCO[C@@H]1CN(C(=O)C2(c3ccc(OC)cc3)CCC(F)(F)CC2)[C@H]1C(=O)Nc1ccc2[nH]ncc2n1 [Example 96] :: F

Task: Does the compound COc1ccc(C2(C(=O)N3C[C@H](F)C[C@@H]3C(=O)Nc3ccc4c(n3)CC(=O)N4)CCC(F)(F)CC2)cc1 [Example 73] have recorded pIC50 that is 7 or more?
Output: T

Task: Does the compound COc1ccc(C(C)(C)C(=O)N2C[C@H](F)C[C@@H]2C(=O)Nc2ccc3[nH]ncc3n2)cc1 [Example 47] have recorded pIC50 that is 7 or more?
Output: T

Task: Does the compound COc1ccc(C2(C(=O)N3C[C@H](F)C[C@@H]3C(=O)Nc3ccc4c(n3)NC(=O)CO4)CCCCC2)cc1 [Example 67] have recorded pIC50 that is 7 or more?
Output: F

Task: Does the compound CNCc1cc2nc(NC(=O)[C@H]3C[C@@H](F)CN3C(=O)C3(c4ccc(OC(F)F)cc4)CCC(F)(F)CC3)ccc2[nH]1 [Example 103] have recorded pIC50 that is 7 or more?
Output: T

Task: Does the compound O=C(Nc1ccc2[nH]ncc2n1)[C@H]1[C@H](O)[C@@H](F)CN1C(=O)C1(c2ccc(OC(F)F)cc2)CCC(F)(F)CC1 [Example 95] have recorded pIC50 that is 7 or more?
Output: T

Task: Does the compound CC(=O)c1ccc(C2(C(=O)N3C[C@H](F)C[C@@H]3C(=O)Nc3ccc4[nH]ncc4n3)CCCCC2)cc1 [Example 83] have recorded pIC50 that is 7 or more?
Output: T

Task: Does the compound CS(=O)(=O)Nc1ccc(C2(C(=O)N3C[C@H](F)C[C@@H]3C(=O)Nc3ccc4[nH]ncc4n3)CCC(F)(F)CC2)cc1 [Example 102] have recorded pIC50 that is 7 or more?
Output: T

Task: Does the compound COc1ccc(C2(C(=O)N3C[C@H](F)C[C@@H]3C(=O)Nc3cc4ccccn4n3)CCCCC2)cc1 [Example 70] have recorded pIC50 that is 7 or more?
Output: T

Task: Does the compound COc1ccc(C2(C(=O)N(C)CC(=O)Nc3cccc4[nH]ncc34)CCCCC2)cc1 [Example 2] have recorded pIC50 that is 7 or more?
Output: F

Task: Does the compound CC(C)(C(=O)N1C[C@H](F)C[C@@H]1C(=O)Nc1ccc2[nH]ncc2n1)c1ccc(OC(F)(F)F)cc1 [Example 58] have recorded pIC50 that is 7 or more?
Output: T

###

assayTarget: CREBBP (Homo sapiens, UniProt Q92793)
Sequence (Q92793 whole entry): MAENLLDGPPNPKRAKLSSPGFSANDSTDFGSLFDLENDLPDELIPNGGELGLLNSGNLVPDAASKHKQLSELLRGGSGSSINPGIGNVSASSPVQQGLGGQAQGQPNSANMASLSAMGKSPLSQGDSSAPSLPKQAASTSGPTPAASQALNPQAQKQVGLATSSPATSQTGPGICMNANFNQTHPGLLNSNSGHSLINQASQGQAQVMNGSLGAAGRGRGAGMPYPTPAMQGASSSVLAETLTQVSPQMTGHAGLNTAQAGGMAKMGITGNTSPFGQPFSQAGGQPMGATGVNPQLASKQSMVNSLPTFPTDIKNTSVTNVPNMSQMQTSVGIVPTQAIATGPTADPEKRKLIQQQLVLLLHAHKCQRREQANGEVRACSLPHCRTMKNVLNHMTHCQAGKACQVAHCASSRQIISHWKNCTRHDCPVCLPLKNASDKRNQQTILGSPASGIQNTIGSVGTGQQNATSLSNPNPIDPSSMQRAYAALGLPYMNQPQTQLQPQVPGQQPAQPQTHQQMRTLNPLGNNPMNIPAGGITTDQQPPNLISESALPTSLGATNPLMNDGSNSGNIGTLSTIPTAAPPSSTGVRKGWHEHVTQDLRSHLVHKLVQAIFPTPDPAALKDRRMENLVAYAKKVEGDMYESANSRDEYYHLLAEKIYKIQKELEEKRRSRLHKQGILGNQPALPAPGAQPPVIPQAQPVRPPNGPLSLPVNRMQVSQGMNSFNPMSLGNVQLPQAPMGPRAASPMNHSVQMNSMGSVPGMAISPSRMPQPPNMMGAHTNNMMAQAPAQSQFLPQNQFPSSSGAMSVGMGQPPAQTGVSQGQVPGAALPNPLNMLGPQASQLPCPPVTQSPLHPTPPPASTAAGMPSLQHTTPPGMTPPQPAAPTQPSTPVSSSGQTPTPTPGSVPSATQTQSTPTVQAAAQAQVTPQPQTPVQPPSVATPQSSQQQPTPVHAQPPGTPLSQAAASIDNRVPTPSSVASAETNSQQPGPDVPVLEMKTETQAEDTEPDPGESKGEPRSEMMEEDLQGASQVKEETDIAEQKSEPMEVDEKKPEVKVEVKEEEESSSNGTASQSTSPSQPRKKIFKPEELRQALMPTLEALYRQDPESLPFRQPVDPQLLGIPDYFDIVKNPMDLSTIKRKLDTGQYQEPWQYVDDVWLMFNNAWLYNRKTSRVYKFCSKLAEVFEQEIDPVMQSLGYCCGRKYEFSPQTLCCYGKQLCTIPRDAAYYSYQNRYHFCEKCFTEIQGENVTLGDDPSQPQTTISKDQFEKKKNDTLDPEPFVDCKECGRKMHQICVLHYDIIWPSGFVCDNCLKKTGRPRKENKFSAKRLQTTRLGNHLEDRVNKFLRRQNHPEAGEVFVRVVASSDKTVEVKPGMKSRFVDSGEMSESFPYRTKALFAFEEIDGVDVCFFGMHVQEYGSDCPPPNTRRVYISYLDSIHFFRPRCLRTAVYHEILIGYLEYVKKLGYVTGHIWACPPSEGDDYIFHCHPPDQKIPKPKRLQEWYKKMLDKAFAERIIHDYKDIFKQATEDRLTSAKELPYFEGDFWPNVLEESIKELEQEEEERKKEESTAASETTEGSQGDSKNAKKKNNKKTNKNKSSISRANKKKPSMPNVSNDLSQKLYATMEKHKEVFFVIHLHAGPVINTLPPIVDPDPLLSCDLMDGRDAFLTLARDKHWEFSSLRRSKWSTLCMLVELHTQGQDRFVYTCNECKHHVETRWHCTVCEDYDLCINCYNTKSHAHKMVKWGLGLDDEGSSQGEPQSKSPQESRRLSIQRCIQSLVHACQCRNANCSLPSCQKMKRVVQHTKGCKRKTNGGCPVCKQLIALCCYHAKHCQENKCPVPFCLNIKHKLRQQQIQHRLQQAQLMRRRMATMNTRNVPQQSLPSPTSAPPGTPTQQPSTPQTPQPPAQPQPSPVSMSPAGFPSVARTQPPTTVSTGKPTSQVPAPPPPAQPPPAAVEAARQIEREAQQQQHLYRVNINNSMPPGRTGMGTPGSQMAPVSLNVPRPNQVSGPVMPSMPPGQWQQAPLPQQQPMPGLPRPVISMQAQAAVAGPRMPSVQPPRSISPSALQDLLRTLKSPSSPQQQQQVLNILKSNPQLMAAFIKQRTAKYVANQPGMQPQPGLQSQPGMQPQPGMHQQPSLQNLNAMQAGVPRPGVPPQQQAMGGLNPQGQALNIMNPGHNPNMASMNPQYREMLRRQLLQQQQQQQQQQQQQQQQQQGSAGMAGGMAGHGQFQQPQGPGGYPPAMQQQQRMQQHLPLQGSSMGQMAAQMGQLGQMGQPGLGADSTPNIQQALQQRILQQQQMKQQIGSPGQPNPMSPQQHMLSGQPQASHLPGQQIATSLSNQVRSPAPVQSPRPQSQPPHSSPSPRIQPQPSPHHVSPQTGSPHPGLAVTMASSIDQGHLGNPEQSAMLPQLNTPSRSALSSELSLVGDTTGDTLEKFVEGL
Label YES when IC50 is strictly below 100 nM; at or above that, label NO.

O=C(Nc1ccc2[nH]ncc2n1)[C@H]1C[C@@H](F)CN1C(=O)C1(c2ccc(OC(F)F)c(F)c2)CCC(F)(F)CC1 :: YES
COc1ncc(C2(C(=O)N3C[C@H](F)C[C@@H]3C(=O)Nc3ccc4[nH]ncc4n3)CCCC2)cn1 :: NO
COc1cccc(C2(C(=O)N3C[C@H](F)C[C@@H]3C(=O)Nc3ccc4[nH]ncc4n3)CCC(F)(F)CC2)c1 :: YES
CCOc1ccc(C2(C(=O)N3C[C@H](F)C[C@@H]3C(=O)Nc3ccc4[nH]ncc4n3)CC(F)(F)C2)cc1F :: YES
[2H]C([2H])([2H])N(C(=O)C1(c2ccc(OC)cc2)CCC(F)(F)CC1)[C@H](CO)C(=O)Nc1ccc2[nH]ncc2n1 :: YES
[2H]C([2H])([2H])N(C(=O)C1(c2ccc(OC)cc2)CCC(F)(F)CC1)[C@H](CO)C(=O)Nc1ccc2[nH]ccc2n1 :: YES

Task: Hello, I'm reviewing records and need to know if IC50 of CC(=O)c1ccc(C2(C(=O)N3C[C@H](F)C[C@@H]3C(=O)Nc3ccc4[nH]ncc4n3)CCCCC2)cc1 is below 100 nM. Could you check?
Output: YES

Task: Hello, I'm reviewing records and need to know if IC50 of O=C(Nc1ccc2[nH]ncc2n1)[C@H]1C[C@@H](F)CN1C(=O)C1(c2ccc(OCF)cc2)CCCC1 is below 100 nM. Could you check?
Output: YES

Task: Hello, I'm reviewing records and need to know if IC50 of CC(C)(O)c1ccc(C2(C(=O)N3C[C@H](F)C[C@@H]3C(=O)Nc3ccc4[nH]ncc4n3)CCC(F)(F)CC2)cc1 is below 100 nM. Could you check?
Output: NO

Task: Hello, I'm reviewing records and need to know if IC50 of COc1ccc(C2(C(=O)N3C[C@](C)(O)C[C@@H]3C(=O)Nc3cccc4[nH]ncc34)CCCC2)cc1 is below 100 nM. Could you check?
Output: NO

Task: Hello, I'm reviewing records and need to know if IC50 of COc1ccc(C2(C(=O)N(CCO)CC(=O)Nc3ccc4[nH]ncc4n3)CCC(F)(F)CC2)cc1 is below 100 nM. Could you check?
Output: NO
